# Measurement Target: mutated beta-galactosidase (p.R60H canine GLB1) in GM11473 fibroblasts (Canis lupus familiaris, UniProt Q9TRY9, R60H)
# Construct: host or cells: GM11473 canine GM1 gangliosidosis fibroblasts
# Sequence (Q9TRY9 30-668 R60H): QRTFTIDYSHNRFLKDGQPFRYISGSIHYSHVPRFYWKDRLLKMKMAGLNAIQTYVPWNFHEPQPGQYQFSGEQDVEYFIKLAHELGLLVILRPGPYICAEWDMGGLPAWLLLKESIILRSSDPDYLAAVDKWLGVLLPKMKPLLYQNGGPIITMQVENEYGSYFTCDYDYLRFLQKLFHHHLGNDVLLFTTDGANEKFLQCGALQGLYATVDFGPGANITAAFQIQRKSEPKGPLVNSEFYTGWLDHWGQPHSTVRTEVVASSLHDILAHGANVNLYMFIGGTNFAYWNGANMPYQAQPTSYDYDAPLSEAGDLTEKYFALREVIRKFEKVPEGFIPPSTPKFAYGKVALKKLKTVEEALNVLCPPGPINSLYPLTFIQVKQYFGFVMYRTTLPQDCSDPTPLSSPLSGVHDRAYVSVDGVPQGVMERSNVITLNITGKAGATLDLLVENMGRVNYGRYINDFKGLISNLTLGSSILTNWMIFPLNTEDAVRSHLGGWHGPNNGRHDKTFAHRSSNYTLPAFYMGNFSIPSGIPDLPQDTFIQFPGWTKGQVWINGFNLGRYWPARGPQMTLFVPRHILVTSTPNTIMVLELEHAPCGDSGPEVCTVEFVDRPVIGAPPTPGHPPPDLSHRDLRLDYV
# Test Summary: Enhancement of β-galactosidase activity measured in GM1 fibroblasts (GM11473), 4-MU-β-D-galactopyranoside substrate
# Type: cell-based
# Design: key: Increase in comparison with non-treated of >2.5 fold is shown as A; Increase in comparison with non-treated of >1.7-2.5 fold is shown as B; Increase in comparison with non-treated of 1.2-1.7 fold is shown as C; D means that no increase compared with non-treated cells was detected in this method
# Condition Summary: increase in β-galactosidase enzyme activity vs non-treated cells, concentrations between 6 and 50 μM, 4 days incubation
Reported Property: Activity in GM11473 fibroblasts

O=C(NCc1ccc2c(c1)OCO2)c1ccc(Nc2nccc3ccc(Cl)cc23)nc1	D
O=C(NCc1ccc2nsnc2c1)c1cc(Nc2nccc3ccc(Cl)cc23)ccn1	D
